Test system: P. falciparum stage V gametocytes
Experiment: microbe, parasite or virus in culture
Design: BacTiter-Glo ATP luminescence viability of purified stage V gametocytes in 384-well plates, per cent inhibition versus DMSO
Conditions: Plasmodium falciparum, 48 h, read-out: % Inhibition
PROPERTY MEASURED: inhibition at 5 µM (%)
Express it in %; write the number only.

In the examples that follow, each entry is paired with its recorded inhibition at 5 µM.
# SMILES STR, MEASUREMENT UNIT, VAL
records = [
    ("CC1=C(C(=O)OCCOCc2ccccc2)C(c2ccccc2C(F)(F)F)C(C(=O)OCCOCc2ccccc2)=C(C)N1", "%", 61.1),
    ("Cc1cc(NN=Cc2ccccc2F)c2cc(F)ccc2n1", "%", -53.4),
    ("O=[N+]([O-])c1ccccc1C=NNc1c2c(nc3ccccc13)CCCC2", "%", -53.6),
]

input: Enter measured inhibition at 5 µM, system P. falciparum stage V gametocytes, for the compound shown: CCCCCCc1cc(Oc2c(I)cc(C[C@H](N)C(=O)O)cc2I)ccc1O
output: 5.11

input: Enter measured inhibition at 5 µM, system P. falciparum stage V gametocytes, for the compound shown: COc1ccc2c(NN=C(C)c3ccccn3)cc(C)nc2c1
output: 103

input: Enter measured inhibition at 5 µM, system P. falciparum stage V gametocytes, for the compound shown: Oc1ccc(CCCc2cc(Oc3c(I)cc(CCc4ncc[nH]4)cc3I)ccc2O)cc1
output: -67

input: Enter measured inhibition at 5 µM, system P. falciparum stage V gametocytes, for the compound shown: COc1ccc(C=NNc2cc(C)nc3ccccc23)c2ccccc12
output: 93.9

input: Enter measured inhibition at 5 µM, system P. falciparum stage V gametocytes, for the compound shown: Clc1ccc(C=NNc2ccnc3ccccc23)cc1
output: -69.1

input: Enter measured inhibition at 5 µM, system P. falciparum stage V gametocytes, for the compound shown: CCCC(=O)c1cnc2c(Oc3cc(Cl)ncn3)cccc2c1Nc1ccccc1C
output: -26

input: Enter measured inhibition at 5 µM, system P. falciparum stage V gametocytes, for the compound shown: Cc1cc(NN=Cc2ccccc2Cl)c2cccc(C)c2n1
output: 48.6

input: Enter measured inhibition at 5 µM, system P. falciparum stage V gametocytes, for the compound shown: N=C(N)c1cccc(OCCCOc2cccc(NC(=O)Nc3ccc([N+](=O)[O-])cc3)c2)c1
output: 24.9

---

Tested on: P. falciparum stage V gametocytes
Experiment: Gametocytocidal ATP bioluminescence assay (single point 5 μM and 1 μM, dose-response)
Assay type: cell-based, Plasmodium falciparum
Details: Plasmodium falciparum; P. falciparum gametocytes; average; read-out: IC50 Pf Gametocytes average, IC50 (µM) average
Quick reference for IC50 among some molecules
Express it in µM; write the number only.

In the examples that follow, each entry is paired with its recorded IC50.
# SMILES STR, IC50 [µM]
records = [
    ("Cl.c1ccc2c(Nc3ccc(Cc4ccc(Nc5c6ccccc6nc6ccccc56)cc4)cc3)c3ccccc3nc2c1", 2.3),
    ("Fc1ccc2[nH]c(-c3ccc(-c4ccc(CNCCN5CCNCC5)cc4)s3)nc2c1", 0.53),
    ("Cc1c(Cn2ncc(N3CCC(N)CC3)c(Cl)c2=O)cccc1NC(=O)Nc1ccc(-c2ccccc2)cc1", 1.18),
]

input: Please report the measured IC50 for Cc1ccc(Nc2nc(-c3ccccn3)cs2)nc1
output: 0.16

input: Please report the measured IC50 for FC(F)c1nc2ccccc2n1-c1nc(N2CCOCC2)nc(N2CCOCC2)n1
output: 5.44

input: Please report the measured IC50 for CC(C)CCNC(=N)Nc1ccc(OCCCOc2ccc(NC(=N)NCCC(C)C)cc2)cc1
output: 0.29

input: Please report the measured IC50 for CN(C)CCCNc1nccc(N(C)c2ccc(NC(=O)Nc3cc(C(F)(F)F)ccc3F)cc2)n1
output: 1
